All values here come from PubChem BioAssay (NCATS).

- Assay comment: P-glycoprotein substrates identified in KB-3-1 adenocarcinoma cell line, qHTS therapeutic library screen (AID 1346986); further: nearly all actives have a fitted effect of over 60% in size
- Test parameters: KB-3-1 parental cells viability, CellTiter-Glo, 72 h; at 44.5 µM (top of the series) unless noted; series mostly up to 44.5 µM
Results filed as inconclusive are left out. Activity calls are given as the source filed them. The call rests on the fitted dose curve; in most records, active means well fitted inhibition curve with a large enough effect; inconclusive means small, poorly fitted or top-dose-only effect; inactive means no such curve, though single readings can be large or run the other way.
Measure: outcome

Observe how each entry below is paired with its result.
{"Molecule": "O=C(c1ccc(OCCN2CCCCC2)cc1)c1c(-c2ccc(O)cc2)sc2cc(O)ccc12", "outcome": "inactive"}
{"Molecule": "Nc1c2c(nc3ccccc13)CCCC2", "outcome": "inactive"}
{"Molecule": "Cc1ccc(-c2cc(C(F)(F)F)nn2-c2ccc(S(N)(=O)=O)cc2)cc1", "outcome": "inactive"}
{"Molecule": "Nc1ccn([C@H]2CC[C@@H](CO)O2)c(=O)n1", "outcome": "inactive"}
{"Molecule": "O=C1N(c2ccccc2)c2ccccc2C1(Cc1ccncc1)Cc1ccncc1", "outcome": "inactive"}

Dear colleague, could you send me outcome for each of the items below? Thanks.
1. CC1COc2c(N3CCN(C)CC3)c(F)cc3c(=O)c(C(=O)O)cn1c23 (stereo not given)
2. CC1(C)O[C@H]2CC(=O)OC[C@]23[C@H]2CC[C@@]4(C)[C@H](c5ccoc5)OC(=O)[C@H]5O[C@]54[C@]2(C)C(=O)C[C@@H]13

inactive
inactive

Data request, read-out outcome, for CN(C)CCOC(c1ccccc1)c1ccccc1
inactive

* * *

- Assay comment: Drug repurposing screens with cells derived from glioblastoma tumor samples (AID 1345199); further: on the % scale 0 is the no-effect control and ±100 the full control effect; nearly all actives have a fitted effect of over 40% in size
- Test parameters: GBM patient neurospheres viability, ATP luminescence, 48 h; at 45.9 µM (top of the series); tumour line B
Records with an inconclusive call do not appear. Calls of active or inactive are those of the source. Calls come from the whole dose curve; as a rule, active = well fitted inhibition curve with a large enough effect; inconclusive = small, poorly fitted or top-dose-only effect; inactive = flat fitted curve, though single readings scatter.
Exercise: state measured activity, negative = cell killing for each of the molecules provided.

{"Molecule": "Cc1cn([C@H]2C=C[C@@H](CO)O2)c(=O)[nH]c1=O", "activity, negative = cell killing": "-6.16% (inactive)"}

Dear colleague, could you send me activity, negative = cell killing for each of the items below? Thanks.
1. CCOC(=O)c1ncn2c1CN(C)C(=O)c1cc(F)ccc1-2
2. COc1ccccc1OCC(O)CN1CCN(CC(=O)Nc2c(C)cccc2C)CC1 (stereo unspecified)
3. CC(C(=O)O)c1cccc(C(=O)c2ccccc2)c1 (stereo unspecified)
4. CC1(C)O[C@H]2CC(=O)OC[C@]23[C@H]2CC[C@@]4(C)[C@H](c5ccoc5)OC(=O)[C@H]5O[C@]54[C@]2(C)C(=O)C[C@@H]13
5. Cc1cnc(C(=O)NCCc2ccc(S(=O)(=O)NC(=O)NC3CCCCC3)cc2)cn1
6. NC(=O)NO
7. CCC1(c2ccccc2)C(=O)NCNC1=O

1: -16% (inactive); 2: -2.09% (inactive); 3: -12.8% (inactive); 4: -1.56% (inactive); 5: -8.45% (inactive); 6: -13.8% (inactive); 7: -7.45% (inactive)

Dear colleague, could you send me activity, negative = cell killing for each of the items below? Thanks.
1. NC12CC3CC(CC(C3)C1)C2
2. CC1COc2c(N3CCN(C)CC3)c(F)cc3c(=O)c(C(=O)O)cn1c23 (stereo unspecified)
3. CC12CC3CC(C)(C1)CC(N)(C3)C2

-22.3% (inactive)
-12.3% (inactive)
2.01% (inactive)
